Molecular target: UniProtKB P48736
Experiment: PI3K-gamma fluorescence polarization assay
Conditions: read-out: IC50 PI3Kγ
Assay readout: IC50 (nM)
# output: bare number, implied unit nM

Reported IC50 for Cc1nc(-c2ccc(NC(=O)Nc3ccc(C(=O)N4CCN(C)CC4)cc3)cc2)nc(N2CCOCC2)n1 [Example 166] : what is it?
33

Reported IC50 for CN(C)CCN(C)C(=O)c1ccc(NC(=O)Nc2ccc(-c3nc(-c4ccccc4)nc(N4CCOCC4)n3)cc2)cc1 [Example 539] : what is it?
16

Reported IC50 for COCCNC(=O)c1ccc(NC(=O)Nc2ccc(-c3nc(N4CCCCC4)nc(N4CCOCC4)n3)cc2)cc1 [Example 611] : what is it?
152

Reported IC50 for CN(C)C1CCN(C(=O)c2ccc(NC(=O)Nc3ccc(-c4nc(N5CCCCC5)nc(N5CCOCC5)n4)cc3)cc2)CC1 [Example 598] : what is it?
40

Reported IC50 for CCc1nc(-c2ccc(NC(=O)Nc3cccc(C(=O)OC)c3)cc2)nc(N2CCOCC2)n1 [Example 581] : what is it?
461

Reported IC50 for CCCC1CCN(C(=O)c2ccc(NC(=O)Nc3ccc(-c4nc(N5CCOCC5)nc(N5CCN(C(=O)N(C)C)CC5)n4)cc3)cc2)CC1 [Example 645] : what is it?
230

Reported IC50 for O=C(NCCF)Nc1ccc(-c2nc(Nc3ccc(N4CCNCC4)cc3)nc(N3CC4CCC(C3)O4)n2)cc1 [Example 327] : what is it?
5900

---

Biological target: Human mTOR (FLAG-TOR) (Homo sapiens)
Assay: mTOR kinase assay (DELFIA format, purified enzyme)
Type: biochemical
Conditions: read-out: IC50 mTOR
Provide the reported IC50 of each item.
# output: bare number, implied unit nM

Reported IC50 for Cc1ccc(NC(=O)Nc2ccc(-c3nc(N4CCOCC4)nc(N4C5CCC4COC5)n3)cc2)cc1 : what is it?
1.3

Reported IC50 for CN1CCN(CC(=O)Nc2ccc(NC(=O)Nc3ccc(-c4nc(N5CC6CCC(C5)O6)nc(N5CC6CCC(C5)O6)n4)cc3)cc2)CC1 : what is it?
0.45

Reported IC50 for CNC(=O)Nc1ccc(-c2nc(Nc3ccc(N4CCNCC4)cc3)nc(N3CC4CCC(C3)O4)n2)cc1 : what is it?
4.6

---

Provide the reported IC50 of each item.
Test system: human prostate PC3-mm2 tumor cell line
Assay: In vitro cell culture growth assay (MTS), PC3-mm2
Type: cell-based
Settings: Homo sapiens, PC3MM2, 72 h, MTS cell growth assay, three days after drug treatment; read-out: IC50 PC3-mm2
# output: bare number, implied unit nM

Reported IC50 for O=C(Nc1ccncc1)Nc1ccc(-c2nc(N3CCOCC3)nc(N3C4COCC3C(O)C4)n2)cc1 (stereo not shown) [Example 273] : what is it?
80

Reported IC50 for CCCCc1nc(-c2ccc(NC(=O)Nc3ccc(C(=O)N(C)CCN(C)C)cc3)cc2)nc(N2CCOCC2)n1 [Example 198] : what is it?
43

Reported IC50 for CCCCc1nc(-c2ccc(NC(=O)Nc3ccc(CNCCN(C)C)cc3)cc2)nc(N2CCOCC2)n1 [Example 252] : what is it?
747

Reported IC50 for Cc1ccc(NC(=O)Nc2ccc(-c3nc(N4CCOCC4)nc(N4CC5CCC(C4)O5)n3)cc2)cc1 [Example 25] : what is it?
258

Reported IC50 for O=C(Nc1ccc(C(=O)NCc2ccccn2)cc1)Nc1ccc(-c2nc(N3CCOCC3)nc(N3CCOCC3)n2)cc1 [Example 263] : what is it?
31

Reported IC50 for O=C(Nc1ccncc1)Nc1ccc(-c2nc(NC3CNC3)nc(N3CCOCC3)n2)cc1 [Example 22] : what is it?
2440

Reported IC50 for CC(C)(C)OC(=O)N1CC(Nc2nc(-c3ccc(NC(=O)Nc4ccncc4)cc3)nc(N3CCOCC3)n2)C1 [Example 21] : what is it?
246

Reported IC50 for CC(O)c1nc(-c2ccc(NC(=O)Nc3ccncc3)cc2)nc(N2CCOCC2)n1 (stereo not shown) [Example 223] : what is it?
229

Reported IC50 for CC(C)c1nc(-c2ccc(NC(=O)Nc3ccc(C(=O)N(C)CCN(C)C)cc3)cc2)nc(N2CCOCC2)n1 [Example 306] : what is it?
30

Reported IC50 for Cc1nc(-c2ccc(NC(=O)Nc3ccncc3)cc2)nc(N2CCOCC2)n1 [Example 161] : what is it?
675

---

Target: Human mTOR (FLAG-TOR) (Homo sapiens, UniProt P42345)
Sequence (P42345 1360-2549 limits assumed): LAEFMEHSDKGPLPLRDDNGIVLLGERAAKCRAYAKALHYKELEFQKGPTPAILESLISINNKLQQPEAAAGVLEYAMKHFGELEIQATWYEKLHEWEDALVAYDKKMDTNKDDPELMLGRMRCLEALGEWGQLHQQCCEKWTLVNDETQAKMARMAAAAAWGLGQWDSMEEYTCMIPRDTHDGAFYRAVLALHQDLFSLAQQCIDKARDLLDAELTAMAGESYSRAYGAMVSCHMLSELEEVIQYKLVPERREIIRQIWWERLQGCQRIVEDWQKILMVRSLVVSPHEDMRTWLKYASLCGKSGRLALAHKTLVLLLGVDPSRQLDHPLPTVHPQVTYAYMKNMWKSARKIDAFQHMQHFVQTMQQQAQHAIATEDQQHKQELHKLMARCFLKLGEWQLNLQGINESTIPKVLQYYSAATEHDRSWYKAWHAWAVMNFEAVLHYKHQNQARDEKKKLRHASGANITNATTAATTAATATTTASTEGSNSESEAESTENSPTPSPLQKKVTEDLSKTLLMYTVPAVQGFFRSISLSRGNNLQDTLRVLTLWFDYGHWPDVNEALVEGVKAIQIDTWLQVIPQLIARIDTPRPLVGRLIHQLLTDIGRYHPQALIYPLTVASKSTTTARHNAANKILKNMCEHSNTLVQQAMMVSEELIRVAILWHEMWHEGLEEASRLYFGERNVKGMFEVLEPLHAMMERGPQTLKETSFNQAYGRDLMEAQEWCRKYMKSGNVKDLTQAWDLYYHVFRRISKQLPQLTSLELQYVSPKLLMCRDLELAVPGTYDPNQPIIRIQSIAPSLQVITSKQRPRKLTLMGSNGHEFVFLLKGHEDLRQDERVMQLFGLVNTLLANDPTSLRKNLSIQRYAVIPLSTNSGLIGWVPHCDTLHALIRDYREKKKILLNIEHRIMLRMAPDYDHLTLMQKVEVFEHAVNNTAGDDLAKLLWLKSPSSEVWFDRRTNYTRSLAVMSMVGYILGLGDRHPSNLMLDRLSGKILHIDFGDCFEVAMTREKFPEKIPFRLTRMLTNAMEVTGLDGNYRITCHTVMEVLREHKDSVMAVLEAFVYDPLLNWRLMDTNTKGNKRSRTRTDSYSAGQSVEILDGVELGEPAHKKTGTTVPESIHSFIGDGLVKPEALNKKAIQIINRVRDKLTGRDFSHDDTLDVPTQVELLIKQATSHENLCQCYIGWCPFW
Assay: mTOR kinase assay (DELFIA format, purified enzyme)
Format: biochemical
Conditions: read-out: IC50 mTOR
Assay readout: pIC50
Please treat pIC50 as minus the base-10 logarithm of the molar concentration.

Reported pIC50 for CN1CCN(c2ccc(NC(=O)Nc3ccc(-c4nc(-c5ccc(NC(=O)Nc6ccc(N7CCN(C)CC7)cc6)cc5)nc(N5CC6CCC(C5)O6)n4)cc3)cc2)CC1 [Example 147] : what is it?
8.22

Reported pIC50 for CN1CCN(C(=O)c2ccc(NC(=O)Nc3ccc(-c4nc(N5CCOCC5)nc(N5C6CCCC5COC6)n4)cc3)cc2)CC1 [Example 792] : what is it?
9.09

Reported pIC50 for CC(C)Nc1nc(-c2ccc(NC(=O)Nc3ccc(CN4CCCC4)cc3)cc2)nc(N2C3CCC2COC3)n1 [Example 383] : what is it?
8.21

---

Target: PI3K-γ (Homo sapiens, UniProt P48736)
Sequence (P48736 whole entry, species assumed): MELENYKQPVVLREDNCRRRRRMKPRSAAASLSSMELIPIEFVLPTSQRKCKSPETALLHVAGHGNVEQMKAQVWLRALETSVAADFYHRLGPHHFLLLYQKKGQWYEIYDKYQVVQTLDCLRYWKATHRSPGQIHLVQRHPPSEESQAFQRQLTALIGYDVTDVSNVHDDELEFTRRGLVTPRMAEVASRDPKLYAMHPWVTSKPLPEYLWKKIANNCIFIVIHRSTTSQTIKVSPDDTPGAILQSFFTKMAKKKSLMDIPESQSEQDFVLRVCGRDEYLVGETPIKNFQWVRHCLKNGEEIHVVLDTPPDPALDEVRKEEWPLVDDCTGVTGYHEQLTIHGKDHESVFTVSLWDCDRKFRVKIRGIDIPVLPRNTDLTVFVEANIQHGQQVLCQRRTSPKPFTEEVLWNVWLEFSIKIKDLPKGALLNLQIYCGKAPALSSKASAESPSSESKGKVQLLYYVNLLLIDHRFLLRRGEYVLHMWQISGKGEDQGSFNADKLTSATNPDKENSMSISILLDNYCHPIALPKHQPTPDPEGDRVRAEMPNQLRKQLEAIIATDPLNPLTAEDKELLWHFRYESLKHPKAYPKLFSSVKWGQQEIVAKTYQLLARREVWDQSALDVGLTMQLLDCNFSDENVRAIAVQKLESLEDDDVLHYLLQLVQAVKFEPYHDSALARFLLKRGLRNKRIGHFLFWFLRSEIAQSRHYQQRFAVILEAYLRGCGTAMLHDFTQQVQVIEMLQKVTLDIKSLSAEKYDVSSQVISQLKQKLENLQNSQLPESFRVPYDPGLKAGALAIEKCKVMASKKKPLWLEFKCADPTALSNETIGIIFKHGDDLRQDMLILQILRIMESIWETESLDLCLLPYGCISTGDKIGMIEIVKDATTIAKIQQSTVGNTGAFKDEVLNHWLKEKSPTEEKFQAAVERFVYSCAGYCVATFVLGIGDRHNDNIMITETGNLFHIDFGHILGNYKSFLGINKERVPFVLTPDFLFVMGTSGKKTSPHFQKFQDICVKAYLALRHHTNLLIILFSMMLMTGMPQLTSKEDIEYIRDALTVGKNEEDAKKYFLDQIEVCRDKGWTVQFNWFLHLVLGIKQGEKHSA
Assay: PI3K-gamma fluorescence polarization assay
Conditions: read-out: IC50 PI3Kγ
Where a name gives a salt, the structure may show the parent alone.
Assay readout: log10(IC50) (log10 of the value in nM)
Give log10 of IC50, with IC50 taken in nM.

Reported log10(IC50) for O=C(Nc1ccncc1)Nc1ccc(-c2nc(CCNc3ccncc3)nc(N3CCOCC3)n2)cc1 : what is it?
2.45

Reported log10(IC50) for CN1CCN(c2ccc(NC(=O)Nc3ccc(-c4nc(C5=CCOCC5)nc(N5C6CCC5COC6)n4)cc3)cc2)CC1 : what is it?
2.29

Reported log10(IC50) for CCc1nc(-c2ccc(NC(=O)Nc3cccc(C(=O)N4CCN(C)CC4)c3)cc2)nc(N2CCOCC2)n1 : what is it?
3.21

Reported log10(IC50) for CNC(=O)c1ccc(NC(=O)Nc2ccc(-c3nc(N4CCOCC4)nc(N4C5CCC4COC5)n3)cc2)cc1 : what is it?
1.87

Reported log10(IC50) for Cc1ccc(-c2nc(-c3ccc(NC(=O)Nc4cccc(C(=O)N5CCN(C)CC5)c4)cc3)nc(N3CCOCC3)n2)cc1 : what is it?
3.32

Reported log10(IC50) for CCCCc1nc(-c2ccc(NC(=O)Nc3ccc(C(=O)OC)cc3)cc2)nc(N2CCOCC2)n1 : what is it?
3.38

Reported log10(IC50) for O=C(NCCO)Nc1ccc(-c2nc(Nc3ccc(N4CCNCC4)cc3)nc(N3CC4CCC(C3)O4)n2)cc1 : what is it?
4.15

Reported log10(IC50) for CC(C)Nc1nc(-c2ccc(NC(=O)Nc3ccc(N4CCN(C)CC4)cc3)cc2)nc(N2CC3CCC(C2)O3)n1 : what is it?
3.51

Reported log10(IC50) for NCCNc1ccc(NC(=O)Nc2ccc(-c3nc(N4C5CCC4COC5)nc(N4C5CCC4COC5)n3)cc2)cc1 : what is it?
3.65

Reported log10(IC50) for COC(=O)Nc1ccc(-c2nc(-c3ccc(NC(=O)Nc4ccc(N5CCN(C)CC5)cc4)cc3)nc(N3CC4CCC(C3)O4)n2)cc1 : what is it?
3.00

Reported log10(IC50) for O=C(Nc1ccncc1)Nc1ccc(-c2nc(N3CCOCC3)nc(N3C4CCC3COC4)n2)cc1 : what is it?
1.98

Reported log10(IC50) for CN(C)CCN(C)C(=O)c1ccc(NC(=O)Nc2ccc(-c3nc(N4CCOCC4)nc(N4CCOCC4)n3)cc2)cc1 [Example 71, hydrochloride] : what is it?
0.90

Reported log10(IC50) for CN(C)CCN(C)C(=O)c1ccc(NC(=O)Nc2ccc(-c3nc(N4CCCCC4)nc(N4CCOCC4)n3)cc2)cc1 : what is it?
1.66

Reported log10(IC50) for O=C(Nc1ccncc1)Nc1ccc(-c2nc(CCCO)nc(N3CCOCC3)n2)cc1 : what is it?
1.85

Reported log10(IC50) for CN(C)C1CCN(C(=O)c2ccc(NC(=O)Nc3ccc(-c4nc(NS(=O)(=O)c5ccccc5)nc(N5CCOCC5)n4)cc3)cc2)CC1 : what is it?
2.11

Reported log10(IC50) for O=C(Nc1ccc(C(=O)NCCN2CCCC2)cc1)Nc1ccc(-c2nc(C3CCOCC3)nc(N3CCOCC3)n2)cc1 : what is it?
1.08

Reported log10(IC50) for C[C@@H](CO)Nc1nc(-c2ccc(NC(=O)Nc3cccnc3)cc2)nc(N2CC3CCC(C2)O3)n1 : what is it?
3.73

Reported log10(IC50) for O=C(Nc1ccncc1)Nc1ccc(-c2nc(N3CCSCC3)nc(N3C4CCC3COC4)n2)cc1 : what is it?
3.19

Reported log10(IC50) for CCN1CCN(c2ccc(NC(=O)Nc3ccc(-c4nc(C5CCOCC5)nc(N5CCOC[C@H]5C)n4)cc3)cc2)CC1 : what is it?
2.92

Reported log10(IC50) for CC(C)N(C)c1nc(-c2ccc(NC(=O)Nc3ccc(CN(C)C)cc3)cc2)nc(N2C3CCC2COC3)n1 : what is it?
3.37

Reported log10(IC50) for O=C(Nc1ccc(C(=O)O)cc1)Nc1ccc(-c2nc(N3CCOCC3)nc(N3C4COCC3COC4)n2)cc1 : what is it?
1.82

Reported log10(IC50) for O=C(Nc1ccc(C(=O)O)cc1)Nc1ccc(-c2nc(N3CCOCC3)nc(N3C4CCC3COC4)n2)cc1 : what is it?
1.83

Reported log10(IC50) for C[C@@H]1COCCN1c1nc(-c2ccc(NC(=O)Nc3ccc(N4CCN(C)CC4)cc3)cc2)nc(C2CCOCC2)n1 : what is it?
3.20

Reported log10(IC50) for O=C(Nc1ccc(-c2nc(Nc3ccc(N4CCNCC4)cc3)nc(N3CC4CCC(C3)O4)n2)cc1)NC1CC1 : what is it?
3.79

Reported log10(IC50) for CN1CCN(C(=O)c2ccc(NC(=O)Nc3ccc(-c4nc(N5CCCOCC5)nc(N5CCOCC5)n4)cc3)cc2)CC1 : what is it?
1.81
